Measured values drawn from patent US11369565B2 for this set.

# Tested on: rabbit skeletal myofibrils (approximately 90% fast fibers)
# assay.explanation: Activation of fast skeletal myofibrils (PUMA coupled-enzyme ATPase assay at pCa25)
# Type: biochemical
# assay.context: concentration at which the compound increased the enzymatic activity by 40%; calcium at pCa25; PM12 buffer pH 6.8
# Description: Preparation of fast skeletal myofibrils. […] Activation of Fast Skeletal Myofibrils. […] This assay regenerates myosin-produced ADP into ATP by oxidizing NADH, producing an absorbance change at 340 nm. […]
reported.endpoint: Mean AC1.4

{"smiles.text": "CN1CC(NC(=O)c2cccc(-c3cnc(NC[C@]4(c5ncccc5F)C[C@H](F)C4)nc3)c2)C1", "meas.value": "A (A=<1 uM)"}
{"smiles.text": "CSc1ccccc1C(C)(C)Nc1ncc(-c2cccc(C#N)c2)cn1", "meas.value": "A (A=<1 uM)"}
{"smiles.text": "O=C(Nc1ccccc1)c1ccnc(NCC2(c3ncccc3F)CCC2)n1", "meas.value": "D (D=>20 uM)"}
{"smiles.text": "CC(C)(Nc1ncc(C#N)cn1)c1ncccc1Cl", "meas.value": "D (D=>20 uM)"}
{"smiles.text": "COc1nc(NC[C@]2(c3ncccc3F)C[C@H](F)C2)ncc1-c1cccc(C(N)=O)c1", "meas.value": "A (A=<1 uM)"}
{"smiles.text": "NC(=O)c1ccc(F)c(-c2cnc(NC[C@]3(c4ncccc4F)C[C@H](F)C3)nc2)c1O", "meas.value": "A (A=<1 uM)"}
{"smiles.text": "CCOC(=O)c1noc(-c2cnc(NC(C)(C)c3ncccc3Cl)nc2)n1", "meas.value": "D (D=>20 uM)"}
